# TARGET_OR_TEST_SYSTEM: NEU1 (Homo sapiens)
# Construct: His; made in house; host or cells: HEK293 cells (cell lysate, unpurified)
# PROCEDURE_TEXT: Inhibition assay, 4MU-NANA cleavage, NEU1
# Assay type: biochemical
# STATED_CONDITIONS: 4MU-NANA as the substrate; pH 4.5; read-out: IC50 NEU1

MOLECULE: CC(=O)NC1C(N)C=C(C(=O)O)OC1C(O)C(O)Cn1cc(-c2ccc(C(=O)O)cc2)nn1 (centres unmarked)
TARGET_OR_TEST_SYSTEM: NEU1 (Homo sapiens)
IC50: > 500 µM

MOLECULE: CC(=O)N[C@H]1C(C(O)C(O)Cn2cc(CO)nn2)OC(C(=O)O)=C[C@H]1O (some centres unmarked)
TARGET_OR_TEST_SYSTEM: NEU1 (Homo sapiens)
IC50: > 500 µM

MOLECULE: CCCCC(=O)N[C@H]1C=C(C(=O)O)O[C@@H]([C@H](O)[C@H](O)CO)[C@@H]1NC(C)=O [25b]
TARGET_OR_TEST_SYSTEM: NEU1 (Homo sapiens)
IC50: > 500 µM

MOLECULE: CCCCC(C)C(=O)N[C@H]1[C@H]([C@H](O)[C@H](O)CO)OC(C(=O)O)=C[C@@H]1O (mixture of isomers)
TARGET_OR_TEST_SYSTEM: NEU1 (Homo sapiens)
IC50: 0.55 µM

MOLECULE: CCCCC(C)C(=O)N[C@H]1[C@H]([C@H](O)[C@H](O)CNC(C)=O)OC(C(=O)O)=C[C@@H]1O (mixture of isomers)
TARGET_OR_TEST_SYSTEM: NEU1 (Homo sapiens)
IC50: 0.42 µM

MOLECULE: CCC(=O)N[C@H]1C=C(C(=O)O)O[C@@H]([C@H](O)[C@H](O)CO)[C@@H]1NC(C)=O [25a]
TARGET_OR_TEST_SYSTEM: NEU1 (Homo sapiens)
IC50: > 500 µM

MOLECULE: CC(=O)N[C@H]1[C@H]([C@H](O)[C@H](O)CO)OC(C(=O)O)=C[C@@H]1NC(=O)C1CCC1 [25d]
TARGET_OR_TEST_SYSTEM: NEU1 (Homo sapiens)
IC50: > 500 µM

MOLECULE: CC(=O)N[C@H]1[C@H]([C@H](O)[C@H](O)CO)OC(C(=O)O)=C[C@@H]1NC(=O)C1CC1 [25c]
TARGET_OR_TEST_SYSTEM: NEU1 (Homo sapiens)
IC50: > 500 µM

MOLECULE: CCCC(=O)N[C@H]1[C@H]([C@H](O)[C@H](O)CO)OC(C(=O)O)=C[C@@H]1O
TARGET_OR_TEST_SYSTEM: NEU1 (Homo sapiens)
IC50: 8.4 µM

MOLECULE: CC(=O)N[C@H]1[C@H]([C@H](O)[C@H](O)Cn2cc(-c3ccc(C(=O)O)cc3)nn2)OC(C(=O)O)=C[C@@H]1N=[N+]=[N-]
TARGET_OR_TEST_SYSTEM: NEU1 (Homo sapiens)
IC50: > 500 µM

MOLECULE: CC(=O)NC1C(NC(=O)NCCC(=O)O)C=C(C(=O)O)OC1C(O)C(O)Cn1cc(-c2ccc(C(=O)O)cc2)nn1 (centres unmarked)
TARGET_OR_TEST_SYSTEM: NEU1 (Homo sapiens)
IC50: > 500 µM

The reported measurements were obtained from patent US20220110919A1.
